Molecular target: α-Amylase from porcine pancreas (Sus scrofa)
Construct: purchased Sigma-Aldrich (Shanghai, China); host or cells: porcine pancreas
Assay: Inhibition rate of α-amylase (glucose assay kit, 510 nm)
Type: biochemical
RECORDED ENDPOINT: pIC50
Expect pIC50 as a plain number equal to -log10 of the molar concentration.

According to the records, this molecule O=c1c(-c2ccc(O)cc2)coc2cc(O)cc(O)c12 [genistein, Genistein] displays pIC50 of 2.59

###

Molecular target: α-Amylase from porcine pancreas (Sus scrofa, UniProt P00690)
Construct: purchased Sigma-Aldrich (Shanghai, China); host or cells: porcine pancreas
Sequence (P00690 16-511): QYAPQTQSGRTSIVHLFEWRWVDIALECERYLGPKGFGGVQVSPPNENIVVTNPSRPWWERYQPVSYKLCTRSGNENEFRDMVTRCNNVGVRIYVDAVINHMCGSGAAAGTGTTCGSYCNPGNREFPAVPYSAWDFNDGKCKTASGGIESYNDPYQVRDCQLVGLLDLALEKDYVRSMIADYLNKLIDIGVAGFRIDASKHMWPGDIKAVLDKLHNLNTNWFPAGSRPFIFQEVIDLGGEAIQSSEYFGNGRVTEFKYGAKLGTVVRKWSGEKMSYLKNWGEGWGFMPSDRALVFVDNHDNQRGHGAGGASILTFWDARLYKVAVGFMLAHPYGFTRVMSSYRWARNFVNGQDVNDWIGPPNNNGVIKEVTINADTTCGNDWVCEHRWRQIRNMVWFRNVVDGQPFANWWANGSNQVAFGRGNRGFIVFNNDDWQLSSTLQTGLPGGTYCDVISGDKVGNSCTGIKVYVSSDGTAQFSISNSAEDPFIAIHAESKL
Experiment: Fluorescence quenching, binding and thermodynamic analysis, α-amylase
Settings: KD dissociation constant, α-amylase, 31 °C
RECORDED ENDPOINT: pKd
pKd (log units): -log10 of the concentration in mol/L.

Briefly, pKd measured for O=c1c(-c2ccc(O)cc2)coc2cc(O)cc(O)c12 [genistein, Genistein] : 3.77
